System: T-47D breast
Test Description: NCI tumour cell line growth inhibition, 48 h; in the data active means GI50 below about 0.43 µM; inactive means the rest
Valid outcomes are listed here; reply with one: active, inactive

// query Query: recorded result category for COc1cc(-n2cc(-c3ccc(F)cc3)[nH]c2=S)cc(OC)c1OC in this test
// result inactive

// query Query: recorded result category for c1ccc2c(Nc3ccc(Oc4ccc(Nc5c6ccccc6nc6ccccc56)cc4)cc3)c3ccccc3nc2c1 in this test
// result active

// query Query: recorded result category for Cn1ccnc1C(=O)/C=C/c1ccc(C(=O)Nc2ccccc2O)cc1 in this test
// result inactive

// query Query: recorded result category for CO/N=C(\COc1ccc2c(c1)oc(=O)c1cc(OC)ccc12)c1ccc(F)cc1 in this test
// result inactive

// query Query: recorded result category for CC1(C)N=C(N)N=C(N)N1c1ccc(OCC(=O)N2CCOCC2)c(Cl)c1 in this test
// result inactive

// query Query: recorded result category for COc1ccc(Cn2cc3c(c2-c2ccc(O)cc2)CCc2cnoc2-3)cc1 in this test
// result active

// query Query: recorded result category for COc1ccc(N(C)c2nc(Cl)nc3ccn(C)c23)cc1 in this test
// result inactive

// query Query: recorded result category for CO/N=C(\COc1ccc2c(c1)oc(=O)c1cc(OC)ccc12)c1cccc(OC)c1 in this test
// result inactive

// query Query: recorded result category for COc1cc(OC)c2cc(C(=O)O)c(=O)oc2c1 in this test
// result inactive

// query Query: recorded result category for CC1CC(C)/C(=N/NC(N)=O)C(C(O)CC2CCC(=O)NC2=O)C1 (stereo unspecified) in this test
// result inactive

// query Query: recorded result category for CCSc1nc(N2CCCCC2)c2cn[nH]c2n1 in this test
// result inactive

// query Query: recorded result category for COc1ccc2cc3[n+](cc2c1OC)CCc1cc2c(cc1-3)OCO2 in this test
// result inactive

// query Query: recorded result category for O=C(Nc1cccnc1)c1cccc([N+](=O)[O-])c1 in this test
// result inactive

// query Query: recorded result category for CC(=O)c1c(O)ccc2c(C)c(C(=O)O)oc12 in this test
// result inactive

// query Query: recorded result category for O=C(NCC(=O)N1CC[C@H](NC2CCC(O)(c3ccc(-c4ncccn4)cn3)CC2)C1)c1cccc(C(F)(F)F)c1 (stereo partly specified) in this test
// result inactive

// query Query: recorded result category for c1ccc2c(-c3nc4ccccc4[nH]3)cccc2c1 in this test
// result inactive

// query Query: recorded result category for Cc1ccc(/C=C/C(=O)c2ccc(N)cc2)c(C)c1 in this test
// result inactive

// query Query: recorded result category for NC(N)=N/N=C(/c1ccccc1)c1ccc(Cl)cc1 in this test
// result inactive

// query Query: recorded result category for Cc1ccc(NSc2ccccc2[N+](=O)[O-])cc1 in this test
// result inactive

// query Query: recorded result category for Nc1nc(Cl)c(N=Nc2ccc(Cl)cc2)c(NCC2(CO)CC(OCc3ccccc3)C2)n1 (stereo unspecified) in this test
// result inactive

// query Query: recorded result category for COc1cc2c3c(n(CCCNC(=O)OCC4c5ccccc5-c5ccccc54)c(=O)c2cc1OC)-c1cc2c(cc1C3=O)OCO2 in this test
// result inactive
